experiment: small-molecule binders of probe aNOTCH2, primary screen, biochemical, small-molecule microarray, 635/667 nm fluorescence (AID 1121); conditions: higher = more signal;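 note: score merges feature fluorescence read at 667 nm with its signal to noise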

MOLECULE | composite z-score
C=CCC(OC(C)=O)[C@@H]1[C@@H](N(Cc2ccc(-c3ccccc3)cc2)C(=O)Cc2ccc(OC)cc2)c2cc(OCCCO)ccc2N1C(=O)c1ccc2ccccc2n1 (some centres undefined) | -0.182
C=CC[C@@]1(C(=O)O)N=C(c2ccc(OCCCO)cc2)O[C@@H]1c1ccccc1N=[N+]=[N-] | 0.0828
O=C(CCN1CCOCC1)c1cccc(O)c1 | 0.0292
COC(=O)[C@@]1(Cc2ccc(F)cc2)[C@H]2c3cc(C(=O)N(C)C)n(CCc4ccccn4)c3C[C@H]2CN1C(=O)c1ccccc1 | 0.2

* * *

system: Inhibin beta A chain (activin A); assay: INHBA (activin A) binders on microarrays, primary screen, biochemical, small-molecule microarray, 635 nm fluorescence scan (AID 1107); conditions: small-molecule microarray binding, higher = more signal;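 note: mouse activin A protein probed at 4.33 µg/mL on printed slides; score merges bound-protein fluorescence near 667 nm with spot signal-to-noise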
Given measured composite z-score, output Criterion met if it is greater than or equal to 0.3 and Criterion not met if not.

COMPOUND | CATEGORY LABEL
COCCOC(=O)N1C(=O)[C@@]2(c3cc(C#CCNC(N)=O)ccc31)[C@H](C(=O)N1CCc3cc(OC)c(OC)cc3C1)[C@H]1C(=O)O[C@H](c3ccccc3)[C@H](c3ccccc3)N1[C@@H]2c1ccc(OCCO)cc1 | Criterion met
CC(C)N1CC=CC23O[C@@H]4C=CCOC(=O)[C@@H]4[C@H]2C(=O)N(CCO)[C@@H]3C1=O (some centres undefined) | Criterion not met
CC(C)(C)N1CC=CC23O[C@@H]4/C=C\CCCOC(=O)C4[C@H]2C(=O)N(CCO)[C@@H]3C1=O (some centres undefined) | Criterion not met
CN(C)C(=O)[C@@]1(CCC(=O)OC(C)(C)C)N=C(c2ccc(OCCCO)cc2)O[C@H]1c1ccccc1 | Criterion met
C=C[C@H](C)[C@@H](O)c1ccc(O)c2ccccc12 | Criterion met
Cc1cc(C)c(C(O)C2C=CC3C(=O)N(c4ccccc4)C(=O)C3N2Nc2ccc(C#N)cc2)c(C)c1 (centres undefined) | Criterion met
COc1ccc(CCN2C(=O)[C@@]3(Cc4ccccc42)c2ccccc2C(=O)N(Cc2ccccc2Cl)[C@H]3c2ccc(CO)cc2)cc1 | Criterion met
COc1ccc([Si](C)(C)[C@@H]2[C@@H](CCn3cc([C@H](O)c4ccccc4)nn3)O[C@]3(C(=O)N(Cc4ccc(N5C(=O)c6cccc7cccc5c67)cc4)c4ccccc43)[C@H]2C)cc1 | Criterion not met
CCOC(=O)C[C@H]1[C@H](OC(=O)c2ccc(-c3ccccc3)cc2)[C@@H](NC(=O)Cc2ccc(OC)cc2)c2cc(OCCCO)ccc2N1C(=O)c1ccc2ccccc2n1 | Criterion met
CC(C)N1C(=O)[C@@]2(c3ccc([N+](=O)[O-])cc3)CC(=O)N(CC34CC5CC(CC(C5)C3)C4)[C@@H]2c2ccc(CO)cc21 | Criterion not met
CN(C)CCCCNC(=O)[C@H]1C[C@H]2C(=O)N[C@@H](Cc3ccccc3)C(=O)N2[C@H]1c1ccc(O)cc1 | Criterion not met
[N-]=[N+]=NCc1ccccc1C[C@@]1(C(=O)N2CCOCC2)N=C(c2ccc(OCCCO)cc2)O[C@@H]1c1ccccc1CN=[N+]=[N-] | Criterion met
CCCCC=C[C@@H](NC(=O)c1ccc(C(=O)OC)cc1)c1ccccc1 | Criterion met

* * *

Catalogue of compounds with associated composite z-score
target: Torsin-1A (Homo sapiens) (UniProt O14656); test: small-molecule binders of mutant TOR1A in lysate, primary screen, cell lysate, small-molecule microarray, COS7 lysate, 635/667 nm fluorescence (AID 1150); conditions: COS7 hTOR1A mutant lysate, 635 nm fluorescence, higher = more signal;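 note: score pools 667 nm emission and signal to noise measuring lysate protein binding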
Sequence (O14656 whole entry, looked up): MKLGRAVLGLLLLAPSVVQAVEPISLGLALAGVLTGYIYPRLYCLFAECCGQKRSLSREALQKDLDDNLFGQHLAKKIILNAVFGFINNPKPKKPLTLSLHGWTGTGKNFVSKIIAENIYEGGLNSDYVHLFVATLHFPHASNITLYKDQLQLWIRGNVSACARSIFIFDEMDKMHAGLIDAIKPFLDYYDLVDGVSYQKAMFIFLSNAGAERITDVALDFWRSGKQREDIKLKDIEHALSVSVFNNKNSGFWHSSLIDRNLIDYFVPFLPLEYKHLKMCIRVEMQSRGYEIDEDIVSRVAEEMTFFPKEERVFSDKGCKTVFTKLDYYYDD

COMPOUND | composite z-score
COC(=O)c1ccc(C(O)C2C=CC3C(=O)N(c4ccccc4)C(=O)C3N2Nc2ccc(C#N)cc2)o1 (configuration not stated) | 0.0721
COC(=O)c1ccc(C(O)C2C=CC3C(=O)N(C)C(=O)C3N2NC(=O)OC(C)(C)C)o1 (configuration not stated) | 1.5
COC(=O)[C@@]1(Cc2ccc(F)cc2)[C@H]2c3cc(C(=O)N(C)C)n(CCc4ccccn4)c3C[C@H]2CN1C(=O)c1ccccc1 | 0.948
O=C1O[C@@H](c2ccccc2)[C@@H](c2ccccc2)N2[C@@H](c3ccc(O)cc3)[C@]3(C(=O)Nc4ccc(C#CC5=CCCCC5)cc43)[C@@H](C(=O)O)[C@H]12 | 0.637
O=C(CS)NCCCCCCNC(=O)[C@H]1C[C@H]2C(=O)N3CCC[C@H]3C(=O)N2[C@H]1c1cccc(OCCO)c1 | 1.31
COCCCNC(=O)[C@@]1(CCC(=O)OC(C)(C)C)N=C(c2ccc(OCCCO)cc2)O[C@H]1c1ccccc1CN=[N+]=[N-] | 1.51
C=CCC(OC(C)=O)[C@@H]1[C@@H](N(Cc2cccc3ccccc23)C(=O)c2ccc(C)cc2)c2cc(OCCCO)ccc2N1C(=O)Cc1ccc(OC)cc1 (some centres not stated) | 0.553

* * *

Catalogue of compounds with associated composite z-score
molecular target: Torsin-1A-interacting protein 1 (Homo sapiens) (UniProt Q5JTV8); test: LAP1 binders from COS7 cell lysate, primary screen, small-molecule microarray, 635/667 nm fluorescence (AID 1116); conditions: COS7-hLAP1 lysate binding, 635 nm fluorescence, higher = more signal
Sequence (Q5JTV8 whole entry, looked up): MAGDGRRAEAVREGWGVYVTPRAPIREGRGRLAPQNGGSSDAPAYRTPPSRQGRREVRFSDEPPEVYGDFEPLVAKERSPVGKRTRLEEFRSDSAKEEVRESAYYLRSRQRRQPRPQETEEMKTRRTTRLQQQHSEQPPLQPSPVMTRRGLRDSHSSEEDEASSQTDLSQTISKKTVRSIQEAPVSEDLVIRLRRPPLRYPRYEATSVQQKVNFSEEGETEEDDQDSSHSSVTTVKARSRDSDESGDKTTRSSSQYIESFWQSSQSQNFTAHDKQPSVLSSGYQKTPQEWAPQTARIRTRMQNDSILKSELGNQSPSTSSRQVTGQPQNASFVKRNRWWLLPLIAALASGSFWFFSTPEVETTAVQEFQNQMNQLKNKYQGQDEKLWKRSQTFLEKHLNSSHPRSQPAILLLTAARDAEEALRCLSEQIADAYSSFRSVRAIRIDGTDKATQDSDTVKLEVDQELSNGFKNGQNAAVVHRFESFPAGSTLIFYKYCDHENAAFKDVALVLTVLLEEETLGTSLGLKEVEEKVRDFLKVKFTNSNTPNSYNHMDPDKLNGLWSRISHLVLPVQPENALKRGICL
ATTRIBUTE MEASURED: composite z-score

COMPOUND | MEASUREMENT TARGET | ATTRIBUTE MEASURED | RECORDED VALUE
CN1C=C(C(=O)OCCS(C)(=O)=O)C(C(=O)OCCS(C)(=O)=O)=CC(CCCO)=CC1C1CC1 (stereo not given) | Torsin-1A-interacting protein 1 (Homo sapiens) (UniProt Q5JTV8) | composite z-score | -0.116
[N-]=[N+]=NCc1ccccc1C[C@]1(C(=O)NCCN2CCOCC2)N=C(c2ccc(OCCCO)cc2)O[C@H]1c1ccccc1N=[N+]=[N-] | Torsin-1A-interacting protein 1 (Homo sapiens) (UniProt Q5JTV8) | composite z-score | 1.51
CC(=O)NCCCC[C@@H]1NC(=O)[C@@H]2C[C@H](C(=O)NCCCCCCNC(=O)CS)[C@H](c3ccc(O)cc3)N2C1=O | Torsin-1A-interacting protein 1 (Homo sapiens) (UniProt Q5JTV8) | composite z-score | 1.15
CN1C(=O)C2C=CC(C(O)c3ccccn3)N(Nc3ccccc3)C2C1=O (stereo not given) | Torsin-1A-interacting protein 1 (Homo sapiens) (UniProt Q5JTV8) | composite z-score | 0.353
CN(C)CCCNC(=O)[C@@]1(Cc2ccccc2I)c2ccccc2C(=O)N(Cc2ccccc2C(F)(F)F)[C@H]1c1ccc(CO)cc1 | Torsin-1A-interacting protein 1 (Homo sapiens) (UniProt Q5JTV8) | composite z-score | 0.283
O=C1c2ccccc2[C@@]2(Cc3ccccc3N(Cc3ccccc3)C2=O)[C@H](c2ccc(CO)cc2)N1C1CCCCC1 | Torsin-1A-interacting protein 1 (Homo sapiens) (UniProt Q5JTV8) | composite z-score | -0.345
COCCOC(=O)N1C(=O)[C@@]2(c3ccccc31)[C@H](c1ccc(O)cc1)N1[C@H](c3ccccc3)[C@H](c3ccccc3)OC(=O)[C@H]1[C@@H]2C(=O)N1CCc2cc(OC)c(OC)cc2C1 | Torsin-1A-interacting protein 1 (Homo sapiens) (UniProt Q5JTV8) | composite z-score | 0.811
[N-]=[N+]=NCc1ccccc1[C@@H]1OC(c2ccc(OCCCO)cc2)=N[C@]1(Cc1ccccc1)C(=O)N1CCCCC1 | Torsin-1A-interacting protein 1 (Homo sapiens) (UniProt Q5JTV8) | composite z-score | 1.27
C=C[C@H](COC(C)=O)N(Cc1ccc(OC(C)=O)c(OC)c1)S(=O)(=O)c1ccc(Br)cc1 | Torsin-1A-interacting protein 1 (Homo sapiens) (UniProt Q5JTV8) | composite z-score | 0.788
CCCCC(CC)C(O)C1C=CC2C(=O)N(c3ccccc3)C(=O)C2N1Nc1ccccc1 (stereo not given) | Torsin-1A-interacting protein 1 (Homo sapiens) (UniProt Q5JTV8) | composite z-score | 0.886
CC(C)C[C@@H]1NC(=O)[C@H]2C[C@@H](C(=O)NCCCCCCNC(=O)CS)[C@@H](c3cccc(OCCO)c3)N2C1=O | Torsin-1A-interacting protein 1 (Homo sapiens) (UniProt Q5JTV8) | composite z-score | 1.95
CC(C)C(=C=CC[C@H](O)c1cccc(OCCO)c1)C[C@H](O)COCc1ccccc1 | Torsin-1A-interacting protein 1 (Homo sapiens) (UniProt Q5JTV8) | composite z-score | 1.14
C=CCNC(=O)[C@H]1[C@@H]2C(=O)O[C@@H](c3ccccc3)[C@@H](c3ccccc3)N2[C@@H](c2ccc(O)cc2)[C@]12C(=O)N(C(=O)OCCOC)c1ccc(C#CCCO)cc12 | Torsin-1A-interacting protein 1 (Homo sapiens) (UniProt Q5JTV8) | composite z-score | 1.35
[N-]=[N+]=NCc1ccccc1[C@H]1OC(c2ccc(OCCCO)cc2)=N[C@@]1(CCS(=O)(=O)c1ccccc1)C(=O)N1CCOCC1 | Torsin-1A-interacting protein 1 (Homo sapiens) (UniProt Q5JTV8) | composite z-score | 3.34
CCOC(=O)C1=CC[C@@H](c2ccccc2Cl)N(S(=O)(=O)c2ccc(C)cc2)C1 | Torsin-1A-interacting protein 1 (Homo sapiens) (UniProt Q5JTV8) | composite z-score | 1.56
